Tested on: LAMBSQUARTER
Experiment: Test E
Assay type: in vivo, Chenopodium album
Conditions: POSTEMERGENCE 0500 GM/HA
readout-type: plant response (%)

>>> test_result("C=C(c1ccc(F)cc1)C(O)(Cn1cncn1)c1ccccc1F (stereo not shown)")
40
>>> test_result("C=C(c1ccccc1)C(O)(Cn1cncn1)c1ccc(F)cc1F (stereo not shown)")
10
>>> test_result("C=C(c1ccccc1)C(O)(Cn1cncn1)c1ccc(Cl)cc1 (stereo not shown)")
40
>>> test_result("C=C(c1ccc(F)cc1)C(O)(Cn1cncn1)c1ccc(F)cc1F (stereo not shown)")
70

* * *

Listed below: pest or weed control at 500 g/ha values for each entry.
System: WATERCHESTNUT
Experiment: Test C rice paddy
Assay type: in vivo, Eleocharis spp.
Conditions: Eleocharis, 504 h; 0500 G/HA, 21 days; read-out: plant response
readout-type: pest or weed control at 500 g/ha

>>> test_result("C=C(c1cccc(F)c1)C(O)(Cn1cncn1)c1ccc(F)cc1F (centres unmarked)")
"40%"
>>> test_result("C=C(c1ccc(Cl)cc1Cl)C(O)(Cn1cncn1)c1ccccc1F (centres unmarked)")
"60%"
>>> test_result("C=C(c1ccccc1)C(O)(Cn1cncn1)c1ccc(Cl)cc1Cl (centres unmarked)")
"0%"
>>> test_result("C=C(c1ccc(Cl)cc1)C(O)(Cn1cncn1)c1ccccc1F (centres unmarked)")
"0%"
>>> test_result("C=C(c1ccccc1Cl)C(O)(Cn1cncn1)c1ccc(Cl)cc1Cl (centres unmarked)")
"0%"
>>> test_result("C=C(c1ccc(F)cc1)C(O)(Cn1ncnc1I)c1ccc(F)cc1F (centres unmarked)")
"0%"
>>> test_result("C=C(c1ccccc1Cl)C(O)(Cn1cncn1)c1ccc(F)cc1F (centres unmarked)")
"0%"
>>> test_result("C=C(c1ccc(F)cc1)C(O)(Cn1ncnc1S)c1ccc(F)cc1F (centres unmarked)")
"0%"

This collection of values is drawn from patent US4965280A.
